# measured.on: Acetylcholinesterase (Homo sapiens)
# assay.text: Inhibition of recombinant human AChE using acetylthiocholine iodide as substrate preincubated for 5 mins followed by substrate addition by Ellman's method
measure: IC50
Write the numeric value and follow it with the unit.

Look up IC50 for this compound: COc1ccc2nc3c(c(N)c2c1)C1CC=CC(C3)C1 (stereo unspecified)
2630 nM

* * *

# assay.text: Permeability of compound by PAMPA-BBB assay
# Assay type: ADME
# condition.summary: read-out: permeability
measure: Papp

Fill in: Papp of CC1=C[C@H]2c3c(O)cc(-c4cc5ccc(O)cc5o4)cc3O[C@@]3(c4ccc(O)c5c4OC(C)(C)C=C5)Oc4cc(O)ccc4[C@H](C1)[C@@H]23 is ___
8.7 ×10⁻⁶ cm/s

* * *

# measured.on: 72 kDa type IV collagenase (Homo sapiens, UniProt P08253)
# Sequence (P08253 whole entry): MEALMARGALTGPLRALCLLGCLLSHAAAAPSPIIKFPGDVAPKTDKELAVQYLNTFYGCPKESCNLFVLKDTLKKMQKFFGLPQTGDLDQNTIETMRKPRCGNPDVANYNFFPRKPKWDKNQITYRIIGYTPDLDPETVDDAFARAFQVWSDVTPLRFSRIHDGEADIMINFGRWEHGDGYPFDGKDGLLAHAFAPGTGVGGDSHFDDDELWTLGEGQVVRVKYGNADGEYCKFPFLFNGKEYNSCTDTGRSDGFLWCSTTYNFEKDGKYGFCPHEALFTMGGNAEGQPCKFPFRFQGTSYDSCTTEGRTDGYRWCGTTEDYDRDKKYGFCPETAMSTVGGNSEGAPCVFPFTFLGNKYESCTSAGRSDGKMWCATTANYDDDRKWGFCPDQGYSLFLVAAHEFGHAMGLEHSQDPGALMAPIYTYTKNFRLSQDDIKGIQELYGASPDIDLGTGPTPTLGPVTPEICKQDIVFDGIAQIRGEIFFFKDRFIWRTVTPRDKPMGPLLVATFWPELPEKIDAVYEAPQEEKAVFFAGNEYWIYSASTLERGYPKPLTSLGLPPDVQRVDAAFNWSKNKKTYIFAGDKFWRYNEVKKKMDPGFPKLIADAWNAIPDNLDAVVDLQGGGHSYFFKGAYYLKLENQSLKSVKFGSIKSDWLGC
measure: pIC50
pIC50 is a log-scale quantity: -log10 of the concentration expressed in molar.

Could you share which pIC50 value was measured for O=c1cc(/N=N/N=P(CCP(=N/N=N/c2cc(=O)oc3ccccc23)(c2ccccc2)c2ccccc2)(c2ccccc2)c2ccccc2)c2ccccc2o1 ?
3.36

* * *

# measured.on: Acetylcholinesterase (Homo sapiens, UniProt P22303)
# Sequence (P22303 whole entry): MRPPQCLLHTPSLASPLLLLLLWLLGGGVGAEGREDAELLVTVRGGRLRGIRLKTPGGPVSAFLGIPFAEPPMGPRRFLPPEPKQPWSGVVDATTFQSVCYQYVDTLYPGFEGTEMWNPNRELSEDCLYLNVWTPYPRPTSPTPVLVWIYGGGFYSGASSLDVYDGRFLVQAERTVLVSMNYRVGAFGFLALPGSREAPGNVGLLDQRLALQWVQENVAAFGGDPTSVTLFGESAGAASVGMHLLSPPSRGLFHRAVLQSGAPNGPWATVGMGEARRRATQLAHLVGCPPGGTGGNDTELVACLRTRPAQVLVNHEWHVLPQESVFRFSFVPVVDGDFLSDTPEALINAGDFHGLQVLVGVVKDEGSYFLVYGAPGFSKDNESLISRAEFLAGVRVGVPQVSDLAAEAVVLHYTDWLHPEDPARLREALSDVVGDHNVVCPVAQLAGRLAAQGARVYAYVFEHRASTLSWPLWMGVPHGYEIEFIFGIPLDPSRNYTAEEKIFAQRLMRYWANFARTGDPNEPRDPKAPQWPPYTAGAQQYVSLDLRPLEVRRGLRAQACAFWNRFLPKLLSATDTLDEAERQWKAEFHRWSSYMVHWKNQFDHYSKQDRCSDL
# assay.text: Inhibition of human AChE using acetylthiocholine iodide as substrate by Ellman's method
measure: pIC50
In plain terms, pIC50 is the concentration in mol/L turned into minus its base-10 logarithm.

I would be grateful if you could share the reported pIC50 for O=c1cc(/N=N/N=P(CCP(=N/N=N/c2cc(=O)oc3ccccc23)(c2ccccc2)c2ccccc2)(c2ccccc2)c2ccccc2)c2ccccc2o1 .
7.46

* * *

# measured.on: Acetylcholinesterase (Electrophorus electricus)
# assay.text: Inhibition of Electrophorus electricus AChE using acetylthiocholine iodide as substrate preincubated for 5 mins followed by substrate addition and measured for 5 mins by spectrophotometric based Ellman's method
measure: pIC50
Reminder that pIC50 is minus the log10 of a molar concentration.

Any idea what its pIC50 is? The compound is O=c1c2ccc(OCCN3CCCC3)cc2oc2cc(OCCN3CCCC3)cc(O)c12
6.92

* * *

# measured.on: Cholinesterase (Homo sapiens, UniProt P06276)
# Sequence (P06276 whole entry): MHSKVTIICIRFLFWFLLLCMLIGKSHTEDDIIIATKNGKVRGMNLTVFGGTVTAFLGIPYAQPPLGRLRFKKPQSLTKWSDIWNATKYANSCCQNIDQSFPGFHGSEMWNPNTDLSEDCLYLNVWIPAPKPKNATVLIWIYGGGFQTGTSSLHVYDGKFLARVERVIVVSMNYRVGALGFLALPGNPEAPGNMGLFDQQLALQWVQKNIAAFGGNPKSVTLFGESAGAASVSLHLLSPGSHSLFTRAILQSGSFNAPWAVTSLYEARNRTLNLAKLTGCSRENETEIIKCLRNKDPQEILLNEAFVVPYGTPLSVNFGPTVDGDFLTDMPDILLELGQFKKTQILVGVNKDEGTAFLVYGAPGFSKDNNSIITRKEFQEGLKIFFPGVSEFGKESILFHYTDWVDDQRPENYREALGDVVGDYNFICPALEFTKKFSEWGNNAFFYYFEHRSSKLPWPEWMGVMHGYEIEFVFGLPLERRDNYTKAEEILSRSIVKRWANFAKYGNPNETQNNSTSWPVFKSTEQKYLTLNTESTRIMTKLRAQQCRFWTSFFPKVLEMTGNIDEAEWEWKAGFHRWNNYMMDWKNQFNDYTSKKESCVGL
# assay.text: Inhibition of BuChE (unknown origin) incubated for 15 mins by Ellman's method
measure: pIC50
pIC50 (log units): -log10 of the concentration in mol/L.

Returns the measured pIC50 for the input molecule. Input: CCN(CCCCOc1ccc(/C=C/C(=O)N2CCc3ccccc3C2)cc1OC)Cc1ccccc1
5.05

* * *

# measured.on: Cholinesterase (Homo sapiens)
# assay.text: Inhibition of BuChE (unknown origin) by spectrophotometric based Ellman's method
measure: IC50 (µM)
Answer format: numeric, µM implied, no suffix.

What does the record list as IC50 for O=C(OC[C@H]1O[C@@H](OC(=O)c2cc(O)c(O)c(O)c2)[C@H](OC(=O)c2cc(O)c(O)c(O)c2)[C@@H](OC(=O)c2cc(O)c(O)c(O)c2)[C@@H]1O)c1cc(O)c(O)c(O)c1 ?
18.3

* * *

# measured.on: Acetylcholinesterase (Electrophorus electricus, UniProt O42275)
# Sequence (O42275 whole entry): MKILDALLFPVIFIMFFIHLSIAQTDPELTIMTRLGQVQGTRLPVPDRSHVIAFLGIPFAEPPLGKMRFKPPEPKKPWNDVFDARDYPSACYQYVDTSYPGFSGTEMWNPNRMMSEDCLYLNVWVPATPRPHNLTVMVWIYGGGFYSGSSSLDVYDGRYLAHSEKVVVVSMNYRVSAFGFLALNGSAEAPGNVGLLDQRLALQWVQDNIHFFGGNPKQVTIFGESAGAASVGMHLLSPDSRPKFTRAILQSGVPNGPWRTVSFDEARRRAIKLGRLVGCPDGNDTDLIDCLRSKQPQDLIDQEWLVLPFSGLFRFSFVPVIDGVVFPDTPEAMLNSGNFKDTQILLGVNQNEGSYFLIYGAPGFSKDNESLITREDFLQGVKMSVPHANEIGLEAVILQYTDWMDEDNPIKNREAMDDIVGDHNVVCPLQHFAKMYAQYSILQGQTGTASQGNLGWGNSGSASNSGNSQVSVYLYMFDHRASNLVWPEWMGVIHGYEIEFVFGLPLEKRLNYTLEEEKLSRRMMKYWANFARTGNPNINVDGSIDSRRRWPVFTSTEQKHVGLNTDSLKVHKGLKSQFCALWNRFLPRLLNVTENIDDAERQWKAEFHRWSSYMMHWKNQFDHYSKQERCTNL
# assay.text: Inhibition of Electrophorus electricus AchE using acetylthiocholine iodide as substrate preincubated for 15 mins followed by substrate addition and measured for 6 mins by DTNB reagent based Ellman's method
measure: IC50 (nM)
Give a bare numeral; the unit nM is implied.

Record CCCCCCCNC(=O)Oc1cccc(CN(C)CCCCCOc2ccc3[nH]c(=O)ccc3c2)c1 : what is its IC50 with Acetylcholinesterase (Electrophorus electricus, UniProt O42275)?
390

* * *

# measured.on: Acetylcholinesterase (Homo sapiens, UniProt P22303)
# assay.text: Inhibition of AChE (unknown origin) using acetylthiocholine iodide as substrate preincubated for 45 mins followed by substrate addition by DTNB reagent based Ellman's method
measure: IC50

Item: CC1(C)CCCC2(C)OC(=O)C=C12 (racemic) [DIHYDROACTINIDIOLIDE] Test system: Acetylcholinesterase (Homo sapiens, UniProt P22303) Read-out: IC50 Value: ?
30 nM

* * *

# measured.on: Beta-secretase 1 (Homo sapiens, UniProt P56817)
# Sequence (P56817 whole entry): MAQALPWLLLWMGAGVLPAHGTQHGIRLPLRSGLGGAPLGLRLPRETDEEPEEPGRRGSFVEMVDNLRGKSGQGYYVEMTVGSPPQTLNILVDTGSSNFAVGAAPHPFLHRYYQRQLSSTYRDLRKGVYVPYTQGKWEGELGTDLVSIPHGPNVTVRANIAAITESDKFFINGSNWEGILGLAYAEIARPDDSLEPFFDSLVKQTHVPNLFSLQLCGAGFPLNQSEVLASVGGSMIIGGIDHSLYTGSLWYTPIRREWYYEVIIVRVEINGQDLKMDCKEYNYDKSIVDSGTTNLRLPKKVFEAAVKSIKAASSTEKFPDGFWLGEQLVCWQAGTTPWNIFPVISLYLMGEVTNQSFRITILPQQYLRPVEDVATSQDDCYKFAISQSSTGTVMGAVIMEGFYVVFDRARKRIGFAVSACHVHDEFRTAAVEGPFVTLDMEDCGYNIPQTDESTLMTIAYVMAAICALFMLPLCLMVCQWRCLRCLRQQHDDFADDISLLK
# assay.text: Inhibition of recombinant human BACE-1 using MCA-SEVNLDAEFR-Ednp-KRR-NH2.3TFA as substrate incubated for 2 hrs by Varioskan-flash multimode plate reader analysis
measure: IC50 (µM)
Give just the numeric value; µM need not be written.

For the compound Cc1cc2nc(-c3cnc(N)s3)c(-c3cnc(N)s3)nc2cc1C , what IC50 is on record?
3

* * *

# measured.on: Fatty-acid amide hydrolase 1 (Homo sapiens)
# Sequence (O00519 whole entry): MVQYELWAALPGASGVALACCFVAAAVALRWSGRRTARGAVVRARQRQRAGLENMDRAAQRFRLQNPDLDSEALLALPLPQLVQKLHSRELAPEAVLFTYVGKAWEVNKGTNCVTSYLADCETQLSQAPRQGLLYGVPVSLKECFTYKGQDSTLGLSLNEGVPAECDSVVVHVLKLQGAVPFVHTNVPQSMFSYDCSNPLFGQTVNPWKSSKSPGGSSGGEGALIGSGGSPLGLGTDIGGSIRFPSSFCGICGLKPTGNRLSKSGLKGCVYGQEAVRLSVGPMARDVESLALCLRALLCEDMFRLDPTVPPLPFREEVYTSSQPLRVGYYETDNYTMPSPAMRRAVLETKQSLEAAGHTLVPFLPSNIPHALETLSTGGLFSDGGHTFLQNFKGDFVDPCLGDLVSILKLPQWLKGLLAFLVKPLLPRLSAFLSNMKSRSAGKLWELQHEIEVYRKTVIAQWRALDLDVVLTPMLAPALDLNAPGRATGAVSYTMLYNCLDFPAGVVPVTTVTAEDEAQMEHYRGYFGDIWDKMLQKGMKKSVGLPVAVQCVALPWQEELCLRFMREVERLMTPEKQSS
measure: IC50 (nM)
Respond numerically; units are nM and should not be typed.

So what does the record say about IC50 for CCCCCCCNC(=O)Oc1cccc(CN(C)CCCCCOc2ccc3[nH]c(=O)ccc3c2)c1 ?
830

* * *

# measured.on: Glutamate receptor ionotropic AMPA (Homo sapiens, UniProt P42261+P42262+P42263+P48058)
# assay.text: Inhibition of AMPA receptor (unknown origin)
measure: pIC50
Remember the convention: pIC50 equals -log10 of concentration in molar.

Returns the measured pIC50 for the input molecule. Input: NCCCCCCNC1(c2ccccc2)CCCCC1
5.77

* * *

# measured.on: Acetylcholinesterase (Electrophorus electricus)
# assay.text: Inhibition of Electrophorus electricus AchE incubated for 15 mins by Ellman's method
measure: IC50 (µM)
I only need the number, in µM, no unit after it.

Given the entry CCN(CCCCOc1ccc(/C=C/C(=O)N2CCc3ccccc3C2)cc1OC)Cc1ccccc1 , report its measured IC50.
12.1

* * *

# measured.on: Cholinesterase (Equus caballus, UniProt P81908)
# Sequence (P81908 whole entry): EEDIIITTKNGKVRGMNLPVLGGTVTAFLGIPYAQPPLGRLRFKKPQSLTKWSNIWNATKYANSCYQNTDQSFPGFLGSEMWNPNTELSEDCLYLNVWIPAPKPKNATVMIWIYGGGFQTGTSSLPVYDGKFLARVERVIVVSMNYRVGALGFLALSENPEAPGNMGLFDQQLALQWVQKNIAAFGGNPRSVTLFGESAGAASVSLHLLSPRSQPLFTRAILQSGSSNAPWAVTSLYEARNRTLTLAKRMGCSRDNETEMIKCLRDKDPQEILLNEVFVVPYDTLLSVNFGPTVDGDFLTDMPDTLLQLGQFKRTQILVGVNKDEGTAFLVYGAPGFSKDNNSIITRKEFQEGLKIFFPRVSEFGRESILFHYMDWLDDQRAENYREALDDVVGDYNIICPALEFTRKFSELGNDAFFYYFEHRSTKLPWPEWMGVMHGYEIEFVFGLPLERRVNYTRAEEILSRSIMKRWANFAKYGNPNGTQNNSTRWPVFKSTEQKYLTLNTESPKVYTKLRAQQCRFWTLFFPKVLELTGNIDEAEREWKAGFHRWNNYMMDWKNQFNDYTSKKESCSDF
# assay.text: Inhibition of horse serum BuChE using butyrylthiocholine chloride as substrate by spectrophotometric based Ellman's method
measure: IC50 (nM)
The answer is to be given in nM; state only the numeric part.

# get_value(readout= IC50, system= Cholinesterase (Equus caballus, UniProt P81908)) for O=C(N/N=C/Nc1c2c(nc3ccccc13)CCCC2)C12CC3CC(CC(C3)C1)C2
615

* * *

# System: SH-SY5Y
# assay.text: Cytotoxicity against human SH-SY5Y cells assessed as reduction in cell viability for 24 hrs by MTT assay
# Format: functional, cell-based
measure: pIC50
The value called pIC50 is obtained by taking minus log10 of the concentration in mol/L.

Please give the measured pIC50 for this compound: COc1ccc2nc3c(c(N)c2c1)C1CC=CC(C3)C1 (stereo unspecified)
4.75

* * *

# measured.on: Amine oxidase [flavin-containing] A (Homo sapiens)
# Sequence (P21397 whole entry): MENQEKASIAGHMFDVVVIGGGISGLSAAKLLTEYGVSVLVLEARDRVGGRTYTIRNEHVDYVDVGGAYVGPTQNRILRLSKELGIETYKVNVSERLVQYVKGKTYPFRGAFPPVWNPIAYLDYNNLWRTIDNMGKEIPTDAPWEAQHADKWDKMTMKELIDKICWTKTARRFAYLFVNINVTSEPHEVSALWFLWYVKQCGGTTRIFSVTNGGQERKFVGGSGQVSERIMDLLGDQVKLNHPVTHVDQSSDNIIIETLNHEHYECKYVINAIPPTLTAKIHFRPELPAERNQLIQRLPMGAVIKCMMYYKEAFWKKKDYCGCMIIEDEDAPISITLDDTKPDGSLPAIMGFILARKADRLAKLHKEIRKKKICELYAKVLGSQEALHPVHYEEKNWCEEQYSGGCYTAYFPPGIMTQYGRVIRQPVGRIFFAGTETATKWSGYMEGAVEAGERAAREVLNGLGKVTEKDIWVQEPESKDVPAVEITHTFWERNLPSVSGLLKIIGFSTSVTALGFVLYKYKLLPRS
# assay.text: Inhibition of recombinant human MAO-A assessed as amount of 4-hydroxyquinoline using kynuramine as a substrate incubated for 30 mins by fluorescence spectrophotometry
measure: IC50 (µM)
Expressed in µM, but write only the number.

Report IC50 for CCN(CCCCOc1ccc(/C=C/C(=O)N2CCc3ccccc3C2)cc1OC)Cc1ccccc1 please.
6.3

Where do these numbers come from? They come from ChEMBL document CHEMBL5126546.
